Reference source for all entries: PubChem BioAssay

- TEST_NAME: PSAC antagonists in infected red cells, primary screen, cell-based, P. falciparum Indochina, OD700, 2 h (AID 1155);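 also: lysis reports solute entry through the parasite surface anion channel PSAC; channel blockers reduce lysis of infected cells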
- REPORTED_CONDITIONS: P. falciparum Indochina infected erythrocytes, osmotic lysis OD700; higher = more signal, called active from +8 up or from −8 down
Exercise: for every item that follows, state its recorded z-score.
API note: the answer field is a bare number with no unit suffix.

[ask] Let me know recorded z-score for CCN1C(=O)[C@H]2[C@H]3[C@H](O)[C@H](O)CC(=NOCC[C@@H]4C=C[C@H](OC(C)=O)[C@@H](COC(C)=O)O4)[C@@H]3CC[C@H]2C1=O , thanks.
[reply] 0.329

[ask] Name the recorded z-score of the compound listed here: C=CC[C@@H]1C=C[C@H](ON=CC[C@@H]2C=C[C@H](OC(C)=O)[C@@H](COC(C)=O)O2)[C@@H](CO)O1
[reply] 0.538

[ask] Using known records, supply z-score for CO[C@@H]1C=CCC(=O)N[C@@H](C)C(=O)OC[C@@H](OC)[C@H](C)C=CCC(=O)OC[C@H]1C
[reply] 0.233

[ask] Return z-score (reported value) for this compound: CC(C)=NO[C@@H](C)c1cn([C@H](CO)Cc2ccccc2)nn1
[reply] -1.7
